- STUDY TARGET: PDE7A1 (Homo sapiens (Human))
- Sequence (Q13946 whole entry, species assumed): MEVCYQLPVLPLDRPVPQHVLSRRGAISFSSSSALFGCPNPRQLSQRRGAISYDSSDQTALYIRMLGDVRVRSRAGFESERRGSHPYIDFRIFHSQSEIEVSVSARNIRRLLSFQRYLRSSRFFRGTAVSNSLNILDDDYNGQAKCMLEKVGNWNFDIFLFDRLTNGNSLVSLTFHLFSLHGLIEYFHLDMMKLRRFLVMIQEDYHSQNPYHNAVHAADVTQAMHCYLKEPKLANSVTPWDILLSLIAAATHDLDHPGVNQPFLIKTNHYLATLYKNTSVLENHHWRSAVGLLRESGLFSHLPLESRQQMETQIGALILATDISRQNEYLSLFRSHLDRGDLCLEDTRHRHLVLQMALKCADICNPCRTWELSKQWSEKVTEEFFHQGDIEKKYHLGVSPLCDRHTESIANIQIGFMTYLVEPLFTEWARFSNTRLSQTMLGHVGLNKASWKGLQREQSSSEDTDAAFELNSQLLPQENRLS
- ASSAY SUMMARY: PDE7 inhibition, commercial phosphodiesterase activity kit ([3H]cAMP, SPA)
- Format: biochemical
- CONDITION DETAILS: read-out: PDE7A IC50
MEASUREMENT KIND: pIC50
// scale note: pIC50 = -log10(conc_M); give the bare number

stdin: Let me know recorded pIC50 for O=c1c2ccccc2nc(SCc2ccccc2)n1-c1ccccc1 [Compound 21] , thanks.
stdout: 6.22

stdin: Hello, please tell me recorded pIC50 for this one: Cc1ccccc1-n1c(SCc2cccnc2)nc2ccccc2c1=O [Compound 26]
stdout: 6.92

stdin: Specify pIC50 for O=c1c2ccccc2nc(SCC2CCCCC2)n1-c1ccccc1Br [Compound 2] and stop.
stdout: 5.68

stdin: // fetch pIC50 given entry O=c1c2ccccc2nc(SCc2ccc3ccccc3c2)n1-c1ccccc1 [Compound 28]
stdout: 7.05

stdin: Name the recorded pIC50 of the compound listed here: Cc1cccc2c(=O)n(-c3c(F)cccc3F)c(SCC(C)(C)C)nc12 [Compound 6]
stdout: 5.06

stdin: Identify the reported pIC50 for the following entry. O=c1c2ccccc2nc(SCC2CCCCC2)n1-c1ccccc1 [Compound 1]
stdout: 6.70

stdin: # return recorded pIC50 for input CCSc1nc2c(Cl)cccc2c(=O)n1-c1c(F)cccc1F [Compound 18]
stdout: 5.61

stdin: Assign pIC50 to the following record: O=c1[nH]c(SCc2cccnc2)nc2c(Cl)cccc12 [Compound 25]
stdout: 6.27

----------
- ASSAY SUMMARY: Pharmacokinetic studies in mice: exposure in plasma and brain
- CONDITION DETAILS: C57BL/6, mouse, plasma, ip, 10 mg/kg
MEASUREMENT KIND: Cmax (µM)
Write it as a number; the unit µM goes unstated.

stdin: Please report the measured Cmax for S=c1[nH]c2ccccc2c(=S)n1-c1ccccc1 [TC3.6]
stdout: 6.79

----------
- ASSAY SUMMARY: in vivo
- CONDITION DETAILS: C57BL/6, mouse, po, 10 mg/kg
MEASUREMENT KIND: Cmax (nM)
Hi! Could you send only the number? It should be in nM, unit omitted.

stdin: Input CC(C)(C)CSc1nc2ccccc2c(=O)n1-c1ccccc1 , output reported Cmax.
stdout: 1380

----------
- ASSAY SUMMARY: in vivo
- CONDITION DETAILS: C57BL/6, mouse, po, 10 mg/kg
MEASUREMENT KIND: Kp
Format: numeric value only, no unit, no commentary.

stdin: Answer with reported Kp of CC(C)(C)CSc1nc2ccccc2c(=O)n1-c1ccccc1 [Compound 5]
stdout: 1.19

----------
- ASSAY SUMMARY: Pharmacokinetic studies in mice: exposure in plasma and brain
- CONDITION DETAILS: C57BL/6, mouse, brain, other: intraperitoneal and oral, 10 mg/kg
MEASUREMENT KIND: Kp

stdin: Fill in Kp for record S=c1[nH]c2ccccc2c(=S)n1-c1ccccc1 [TC3.6]
stdout: < 1

----------
- ASSAY SUMMARY: in vivo
- CONDITION DETAILS: C57BL/6, mouse, ip, 10 mg/kg
MEASUREMENT KIND: Cmax (nM)
Please state the figure in nM; there is no need to write the unit.

stdin: Please list Cmax recorded for the compound CC(C)(C)CSc1nc2ccccc2c(=O)n1-c1ccccc1
stdout: 2310

----------
- ASSAY SUMMARY: in vitro
- CONDITION DETAILS: PAMPA, pH 7.4
Give Papp at 2.5 h for every item shown.
Write down the numeric answer in ×10⁻⁶ cm/s and omit the unit.

stdin: Quickly give me recorded Papp at 2.5 h for O=c1c2ccccc2nc(SCc2ccncc2)n1-c1ccccc1 [Compound 27]
stdout: 15.9

stdin: Report measured Papp at 2.5 h; entry is Cc1ccccc1-n1c(SCc2cccnc2)nc2ccccc2c1=O [Compound 26]
stdout: 20.1

stdin: Note Papp at 2.5 h for the molecule shown: O=c1c2ccccc2nc(SCc2ccccn2)n1-c1ccccc1 [Compound 23]
stdout: 12.4

stdin: Retrieve Papp at 2.5 h measured for CCSc1nc2ccccc2c(=O)n1-c1c(F)cccc1F [Compound 17] and print it.
stdout: 4.8

stdin: Report Papp at 2.5 h, nothing else, for this molecule: O=c1c2ccccc2nc(SCC2CC2)n1-c1ccccc1Br [Compound 14]
stdout: 1.9
